Molecular target: UniProt Q9HC16
Sequence (Q9HC16 whole entry): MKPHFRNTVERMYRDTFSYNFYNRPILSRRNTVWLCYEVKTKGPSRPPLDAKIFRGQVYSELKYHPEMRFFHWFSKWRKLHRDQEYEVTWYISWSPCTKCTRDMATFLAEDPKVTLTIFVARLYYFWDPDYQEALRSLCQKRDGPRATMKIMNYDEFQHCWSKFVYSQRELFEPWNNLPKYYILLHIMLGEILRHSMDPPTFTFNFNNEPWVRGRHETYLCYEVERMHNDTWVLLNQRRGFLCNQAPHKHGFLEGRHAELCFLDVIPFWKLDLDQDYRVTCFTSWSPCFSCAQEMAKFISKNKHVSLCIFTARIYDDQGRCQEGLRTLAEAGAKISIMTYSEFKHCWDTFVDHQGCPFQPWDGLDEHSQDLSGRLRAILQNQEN
Format: functional
The source made the active and inactive calls.
assayMetric: IC50

Sample answers from the record:
In [3]: df
Out[3]:
                                   compound  assaymetric         testvalue
0                   CNC(=O)OCc1n(C)cc[n+]1C         IC50  1.31 µM (active)
1  C[N+]12CCCCC1[C@@H](CO)CCC2 (some centres undefined)         IC50  4.19 µM (active)
2  CCC(=O)Nc1cccc(-c2nnc(SCC(=O)NCc3ccco3)n2C)c1         IC50  5.36 µM (active)

Now turn to the next compound.
The reported UniProt Q9HC16 IC50 of C[N+](C)(C)CCCN(Cc1ccc2c(c1)OCO2)C(=O)NC1CCCCC1 is 4.17 µM (active)
